Recorded inhibition by entry
- ASSAY_REMARKS: PhoP regulon inhibitors, Salmonella typhi PhoP promoter GFP reporter, confirmatory (AID 1850);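 further: 0% = induced wells with vehicle and 100% = uninduced wells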
- CONDITION_DETAILS: fluorescence, 4 h, at 50 µM, hits give high values
Hit rate of the full screen: of about 310,000 compounds, about 1,000 (0.32%) were called active. Only a sample is shown. Measured potencies and affinities stand elsewhere.
ASSAY_READOUT: inhibition (%)

[[record]]
structure = "Cc1c(C(=S)NC(=O)C2CC2)c(=O)n(-c2ccccc2)n1C"
assay_readout = "inhibition"
numeric_readout = -1.42

[[record]]
structure = "CCOC(=O)c1cn(C2CC2)c2c(F)c(F)c(F)cc2c1=O"
assay_readout = "inhibition"
numeric_readout = 5.55

[[record]]
structure = "COc1c(F)c(F)cc2c(=O)c(C(=O)O)cn(C3CC3)c12"
assay_readout = "inhibition"
numeric_readout = 1.27

[[record]]
structure = "Cc1cccc(-c2cc(=O)c(C(=O)O)cn2-c2ccc(F)cc2F)c1"
assay_readout = "inhibition"
numeric_readout = -13.4

[[record]]
structure = "Cc1ccc(N2C(=O)c3ccccc3C2=O)cc1"
assay_readout = "inhibition"
numeric_readout = -2.86

[[record]]
structure = "Cc1cc(C)c(OCC(=O)OCC(=O)NCCC2=CCCCC2)c(C)c1"
assay_readout = "inhibition"
numeric_readout = 1.39

